Reference source for all entries: paper PMC6602942

STUDY SYSTEM: medaka MTNR1b (Oryzias latipes)
Sequence (A0ACM8R453 1-364): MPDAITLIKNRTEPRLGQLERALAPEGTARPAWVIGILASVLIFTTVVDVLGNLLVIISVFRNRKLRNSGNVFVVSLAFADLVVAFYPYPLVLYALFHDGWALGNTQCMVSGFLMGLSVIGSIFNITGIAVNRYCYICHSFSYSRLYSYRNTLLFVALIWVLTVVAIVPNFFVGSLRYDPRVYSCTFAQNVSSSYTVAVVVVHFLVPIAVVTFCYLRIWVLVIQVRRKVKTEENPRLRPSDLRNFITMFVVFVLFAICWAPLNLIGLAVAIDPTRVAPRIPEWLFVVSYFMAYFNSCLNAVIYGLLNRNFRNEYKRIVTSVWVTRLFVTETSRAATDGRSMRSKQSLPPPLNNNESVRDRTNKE
MEASUREMENT PROTOCOL: cAMP-responsive (CRE-luc) reporter gene assay, antagonist mode with EC90 melatonin
Format: cell-based
DETAILS: with EC90 melatonin and forskolin, Hepa-E1 cells, 24 h; NC: not calculable; read-out: Potency (M) MTNR1b, antagonist
ASSAY READOUT: IC50 (M)
Answers are plain numbers, in M.

Lookup: // query IC50 value for entry CCC(=O)NC1Cc2ccccc2C(c2ccccc2)C1 (stereo not shown)
Found: 1.9e-07

----------
STUDY SYSTEM: medaka MTNR1c (Oryzias latipes, UniProt A0A0D6A8H7)
Sequence (A0A0D6A8H7 entry or part of it): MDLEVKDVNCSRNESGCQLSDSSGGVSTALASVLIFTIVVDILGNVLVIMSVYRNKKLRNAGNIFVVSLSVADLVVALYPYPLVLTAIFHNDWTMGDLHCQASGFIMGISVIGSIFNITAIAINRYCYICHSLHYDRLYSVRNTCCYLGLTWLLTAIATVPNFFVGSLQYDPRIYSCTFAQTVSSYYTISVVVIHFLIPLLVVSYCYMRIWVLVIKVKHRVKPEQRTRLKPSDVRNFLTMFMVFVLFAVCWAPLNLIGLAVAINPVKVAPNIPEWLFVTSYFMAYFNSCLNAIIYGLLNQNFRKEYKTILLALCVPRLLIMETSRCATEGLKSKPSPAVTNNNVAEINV
MEASUREMENT PROTOCOL: cAMP-responsive (CRE-luc) reporter gene assay, agonist mode
Format: cell-based
DETAILS: transiently transfected Hepa-E1 cells, 6.25 × 10^−7 M forskolin, 24 h; NC: not calculable (low activity, curve did not reach maximum); read-out: Potency (M) MTNR1c
Method: Expression vectors for medaka mtnr genes, (pcDNA-OlMTNR1a, pcDNA-OlMTNR1b, pcDNA-OlMTNR1c and pcDNA-OlMTNR1a-like) were constructed by PCR amplification of the entire protein coding region, using primers which introduced in-frame Kozak sequence[33] at the 5′ end. […] After 24 h the cells were collected, and cellular luciferase activities were measured by luminescence assay with the Steady-Glo Assay System Kit (Promega) according to the manufacturer’s instructions. […]
ASSAY READOUT: EC50 (M)
Numbers only, in M.

Lookup: GET /values?readout=EC50&item= COc1ccc2[nH]c(I)c(CCNC(C)=O)c2c1 [2-Iodo melatonin, 2-Iodomelatonin]
Found: 1.3e-11
